# tested system: MERTK (UniProt Q12866)
# Sequence (Q12866 whole entry, looked up): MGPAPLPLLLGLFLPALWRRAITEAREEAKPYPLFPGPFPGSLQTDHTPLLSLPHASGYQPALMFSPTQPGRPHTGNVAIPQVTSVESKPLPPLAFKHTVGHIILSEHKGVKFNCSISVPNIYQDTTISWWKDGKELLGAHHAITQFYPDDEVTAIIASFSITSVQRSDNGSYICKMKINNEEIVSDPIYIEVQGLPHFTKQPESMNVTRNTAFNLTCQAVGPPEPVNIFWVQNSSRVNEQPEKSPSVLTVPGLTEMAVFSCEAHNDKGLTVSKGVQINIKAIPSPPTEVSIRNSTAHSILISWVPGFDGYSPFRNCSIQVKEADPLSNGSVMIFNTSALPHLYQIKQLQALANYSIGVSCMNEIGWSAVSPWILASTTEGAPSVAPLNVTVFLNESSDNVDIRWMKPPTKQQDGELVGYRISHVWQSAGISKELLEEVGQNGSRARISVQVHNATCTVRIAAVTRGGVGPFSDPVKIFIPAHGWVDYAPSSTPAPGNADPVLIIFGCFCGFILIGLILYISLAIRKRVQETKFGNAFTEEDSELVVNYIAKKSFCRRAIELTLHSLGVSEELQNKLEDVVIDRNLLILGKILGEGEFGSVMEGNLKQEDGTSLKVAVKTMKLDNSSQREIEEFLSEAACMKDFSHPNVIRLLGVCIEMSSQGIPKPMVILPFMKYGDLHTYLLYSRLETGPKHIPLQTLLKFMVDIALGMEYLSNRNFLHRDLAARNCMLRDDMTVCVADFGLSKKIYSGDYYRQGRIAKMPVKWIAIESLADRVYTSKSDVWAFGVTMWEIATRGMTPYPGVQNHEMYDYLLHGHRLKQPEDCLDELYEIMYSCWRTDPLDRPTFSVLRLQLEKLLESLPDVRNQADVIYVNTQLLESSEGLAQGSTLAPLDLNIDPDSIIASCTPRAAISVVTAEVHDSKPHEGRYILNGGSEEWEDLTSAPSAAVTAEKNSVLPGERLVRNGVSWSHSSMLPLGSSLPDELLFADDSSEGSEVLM
# method description: phosphorylation enrichment, bacterial display (enrichment ratio); higher = better substrate or ligand; peptides without Tyr show the background
Each entry below lists one item and its recorded phosphorylation enrichment value.

>>> df
                      item_sequence           tested_system  reported_measurement
0  RQQEVYLLYKQ [RARRES1_Y159_D158V]  MERTK (UniProt Q12866)                 0.842

What phosphorylation enrichment value was documented for this sequence, FGEFRYRSVIK [CFTR_Y517_D513G_YF] ?
0.409

What would you report for YRAVKYLQMVG [AVPR2_Y117_C112Y] ?
0.385

What would you report for AGQERYRAITS [RAB11B_Y73] ?
0.487

What would you report for WHHTFYNELCV [ACTC1_Y93_R97C] ?
0.905

What would you report for PTKNDYWAMPA [WWOX_Y287_L291P] ?
5.26

What would you report for CTTIHYNFMHN [TP53_Y234_C238H_YF] ?
0.454

What would you report for SVTCTYSPALD [TP53_Y126_N131D] ?
0.466

What would you report for ANSPVYVPTTR [GATA6_Y188_S184N] ?
0.468

What would you report for VSLEAYCKHKY [RXRA_Y403_A398V] ?
0.559

What would you report for FCRITYDIFPF [INTS13_Y67_M66T_YF] ?
2.2

What would you report for KLQQWYREPRS [GPI_Y17_H20P] ?
0.463

What would you report for SSTAMYSAAGR [PSMB1_Y8_P11A] ?
0.511

====

# System: c-Src
# method description: phosphorylation enrichment, bacterial display (enrichment ratio); higher = better substrate or ligand; peptides without Tyr show the background
Each entry below lists one item and its recorded phosphorylation enrichment value.

Check out these entries, answers already filled in.
>>> print(df.to_string())
                    item_sequence  tested_system                    property  reported_measurement
0       LNPVVYTLRNA [OR4C12_Y285]          c-Src  phosphorylation enrichment                  1.92
1        QMVGMYASSYM [AVPR2_Y124]          c-Src  phosphorylation enrichment                  1.45
2  RRDRDYTNLPS [CSF1R_Y923_E920D]          c-Src  phosphorylation enrichment                 0.545

What phosphorylation enrichment value was documented for this sequence, FLRKEYGGVNV [CBR3_Y81_L84V] ?
0.578

What would you report for NFFEFYVDDPL [GCHFR_Y48_P53L_YF] ?
0.489

What would you report for RAADFYSQQMA [GBP6_Y334_YF] ?
0.675

What would you report for SVVVPYEPPEL [TP53_Y220_V225L] ?
0.437

====

# tested system: MERTK (UniProt Q12866)
# method description: phosphorylation enrichment, bacterial display (enrichment ratio); higher = better substrate or ligand; peptides without Tyr show the background
Each entry below lists one item and its recorded phosphorylation enrichment value.
I only need the number, thanks.

Check out these entries, answers already filled in.
>>> df
                     item_sequence  reported_measurement
0  TLERHYKELQA [SPTBN2_Y834_E835K]                 0.571
1   IENKPYGMSDP [RET_Y1062_L1061P]                  0.41
2   HHLSTYTKMLF [CHST8_Y251_R247H]                 0.541

Let us move to another entry and its phosphorylation enrichment.
Lab note: need phosphorylation enrichment with MERTK (UniProt Q12866) for entry WDLPEYSFKDP [ITGA3_Y237_S235P_YF] , please look it up.
0.381

====

# tested system: Fes (UniProt P07332)
# Sequence (P07332 whole entry, looked up): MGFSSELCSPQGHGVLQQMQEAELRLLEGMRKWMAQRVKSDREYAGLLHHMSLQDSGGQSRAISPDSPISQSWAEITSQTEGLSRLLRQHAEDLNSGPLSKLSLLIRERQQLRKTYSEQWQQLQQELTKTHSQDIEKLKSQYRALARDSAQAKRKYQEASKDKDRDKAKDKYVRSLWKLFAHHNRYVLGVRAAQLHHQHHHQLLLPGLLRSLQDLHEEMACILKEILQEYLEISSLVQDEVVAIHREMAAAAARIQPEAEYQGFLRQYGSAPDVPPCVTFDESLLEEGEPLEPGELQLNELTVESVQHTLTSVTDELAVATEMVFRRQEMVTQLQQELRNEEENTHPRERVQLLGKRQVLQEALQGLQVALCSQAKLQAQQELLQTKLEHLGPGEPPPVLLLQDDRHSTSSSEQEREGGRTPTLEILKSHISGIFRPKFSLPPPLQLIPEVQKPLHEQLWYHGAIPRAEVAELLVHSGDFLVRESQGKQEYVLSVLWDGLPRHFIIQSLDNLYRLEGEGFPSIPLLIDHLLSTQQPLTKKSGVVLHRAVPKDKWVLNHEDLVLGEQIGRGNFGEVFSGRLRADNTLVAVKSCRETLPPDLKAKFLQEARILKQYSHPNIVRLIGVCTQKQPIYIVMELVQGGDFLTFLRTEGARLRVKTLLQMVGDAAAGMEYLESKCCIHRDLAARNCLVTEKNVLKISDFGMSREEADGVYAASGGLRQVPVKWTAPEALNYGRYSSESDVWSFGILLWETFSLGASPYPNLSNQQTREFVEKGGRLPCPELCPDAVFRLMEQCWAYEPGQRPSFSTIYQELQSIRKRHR
# method description: phosphorylation enrichment, bacterial display (enrichment ratio); higher = better substrate or ligand; peptides without Tyr show the background
Group membership follows phosphorylation enrichment per the scheme low value: < 0.8; medium value: ≥ 0.8 and < 0.9; high value: ≥ 0.9

Illustrative cases are given below, each with its answer.
In [3]: df
Out[3]:
                        item_sequence    class_name
0      RLEPVYFVAPA [LAMC2_Y250_D247E]    high value
1               IKRIAYEFVEM [ADA_Y84]  medium value
2       EDAHHYLCKEV [JAK2_Y382_A377E]  medium value
3  AVAFLYFKSIG [ADGRL4_Y301_V300L_YF]    high value
4      SYCYRYRCAPR [SUMF1_Y344_A348P]     low value

Hello team, could you let me know which band the following sequence falls into: AAQNCYKVTNA [TPI1_Y105_G110A]
low value

What would you report for HSYNSYTYPRL [PAK5_Y316] ?
low value

What would you report for DNEALYDICFC [TUBB3_Y208_R213C] ?
high value

What would you report for LNPDGYKKAYE [CPXM2_Y427_E428K] ?
high value

====

# tested system: EPHB1 (UniProt P54762)
# Sequence (P54762 whole entry, looked up): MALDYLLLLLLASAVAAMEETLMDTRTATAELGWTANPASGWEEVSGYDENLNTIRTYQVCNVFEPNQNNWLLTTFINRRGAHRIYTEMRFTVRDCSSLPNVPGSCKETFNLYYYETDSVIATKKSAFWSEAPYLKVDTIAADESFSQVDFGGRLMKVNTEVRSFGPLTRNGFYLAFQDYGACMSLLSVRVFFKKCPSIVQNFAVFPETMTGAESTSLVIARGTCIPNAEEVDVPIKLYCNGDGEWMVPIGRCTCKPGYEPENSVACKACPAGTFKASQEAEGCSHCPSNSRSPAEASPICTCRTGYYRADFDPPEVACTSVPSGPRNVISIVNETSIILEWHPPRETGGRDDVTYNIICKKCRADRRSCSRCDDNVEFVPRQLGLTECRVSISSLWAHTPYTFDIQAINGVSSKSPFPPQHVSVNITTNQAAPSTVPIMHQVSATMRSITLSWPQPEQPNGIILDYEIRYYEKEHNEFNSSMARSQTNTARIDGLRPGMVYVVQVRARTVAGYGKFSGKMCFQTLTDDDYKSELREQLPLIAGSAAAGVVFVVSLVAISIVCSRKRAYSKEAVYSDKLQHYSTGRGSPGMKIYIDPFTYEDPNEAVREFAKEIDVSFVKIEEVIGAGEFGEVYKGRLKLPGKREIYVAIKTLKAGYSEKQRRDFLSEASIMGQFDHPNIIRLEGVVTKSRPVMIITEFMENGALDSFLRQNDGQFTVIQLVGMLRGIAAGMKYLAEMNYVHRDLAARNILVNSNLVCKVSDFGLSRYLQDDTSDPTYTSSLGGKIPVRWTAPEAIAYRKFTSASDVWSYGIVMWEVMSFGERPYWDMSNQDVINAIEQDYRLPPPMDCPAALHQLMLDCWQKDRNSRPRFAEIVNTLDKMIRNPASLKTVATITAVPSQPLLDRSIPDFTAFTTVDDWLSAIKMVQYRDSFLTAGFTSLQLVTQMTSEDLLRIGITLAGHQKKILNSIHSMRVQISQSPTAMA
# method description: phosphorylation enrichment, bacterial display (enrichment ratio); higher = better substrate or ligand; peptides without Tyr show the background
Label 1 when phosphorylation enrichment >= 0.6; otherwise 0.

Illustrative cases are given below, each with its answer.
>>> print(df.to_string())
                     item_sequence  class_name
0    SVVVPYEPPEF [TP53_Y220_V225F]           0
1         DKNSSYFADWL [TUBB8_Y340]           0
2     SAPPSHEETVA [LITAF_Y23_Y23H]           0
3  EWKQNYEESQS [MYH7_Y1460_K1459N]           0
4   EQQRAYLEGTC [HLA-C_Y183_L180Q]           1
5  TCFDKYTGSTF [FN1_Y101_N104S_YF]           0

Reported phosphorylation enrichment at or above 0.6? HQKKPYCHTHN [NRAP_Y53_A56T]
1

What would you report for CLLHCYFSQIH [MCM3AP_Y873_R878H] ?
1

What would you report for WHHTFYNELRV [ACTA1_Y93] ?
0

What would you report for QRTMKYTTATG [MCCC1_Y41] ?
0

What would you report for ILDEAYVMASM [EGFR_Y764_V769M] ?
0

What would you report for DEDFLYREELA [POR_Y575_YF] ?
0

What would you report for FTRNYYVQAVL [CYBA_Y88_R90Q] ?
1

What would you report for FTNRSYDLDFD [MYC_Y12_N11S_YF] ?
0

What would you report for QAPPIYLDVLG [NTRK1_Y791_V790I] ?
1

What would you report for YDRREYSRFEK [ITGB7_Y758] ?
0

What would you report for KANEFYPVVII [ADAMTS18_Y765_L769I_YF] ?
0

What would you report for KIVQDYLEKFF [MMP8_Y36_T32I_YF] ?
1

What would you report for YTNELYMMMRD [FGFR1_Y730_C725Y] ?
1

What would you report for AVVEPYNSLLT [TUBA1A_Y185_I188L] ?
0

What would you report for STTSDYQWDFS [MTDH_Y364_V368F] ?
1

What would you report for RELGEYGLQAF [ALDH2_Y497_YF] ?
1

What would you report for NFSKMYCNPDA [KNL1_Y489_A486S_YF] ?
0

====

Each entry below lists one item and its recorded phosphorylation enrichment value.
# tested system: EPHB1 (UniProt P54762)
# method description: phosphorylation enrichment, bacterial display (enrichment ratio); higher = better substrate or ligand; peptides without Tyr show the background
I only need the number, thanks.

Lab note: need phosphorylation enrichment with EPHB1 (UniProt P54762) for entry EKRDAYVSRLN [GSR_Y150] , please look it up.
0.455

What would you report for RMGNLYDIDEN [GRIN2A_Y1246_D1251N] ?
1.16

====

# tested system: SHP2-C SH2;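 also: peptide library displayed on the E. coli surface as eCPX fusions, selected cells deep-sequenced, score is each peptide's frequency after selection divided by its frequency in the input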
# method description: SH2 binding enrichment of the phosphorylated peptide, bacterial display (enrichment ratio); higher = better substrate or ligand; peptides without Tyr show the background
Label 1.0 when SH2 binding enrichment >= 0.6; otherwise 0.0.

Reported SH2 binding enrichment at or above 0.6? KKHIPHREHKS [CSNK1G2_Y206_Y206H]
1.0

What would you report for ATDLAYYLVCK [ASL_Y375_R379C] ?
0.0

What would you report for VDSAHYKLLET [DTX3L_Y385] ?
1.0

What would you report for LANNEYYFQVC ?
0.0

What would you report for DAICYYRMENA [NPHS2_Y195] ?
1.0

What would you report for PLRPDYQEPSR [DDR2_Y481] ?
1.0
